These entries and their values trace back to PubChem BioAssay (NCI).

Tested on: RPMI-8226 leukemia
Test: NCI-60 one-dose screen, 48 h
Details: 10 µM unless noted
The panel holds about 83,000 compounds, 20% with a hit somewhere; the sample as a whole holds those more often. Calls of active or inactive are those of the source. Rule for the calls: active = growth percent below 10; inactive = the rest.
Possible outcomes: y = active, n = inactive

[
  {
    "compound": "COc1cc(/C=C/C(=O)c2c(C)nc3ccccc3c2/C=C/c2ccccc2)cc(OC)c1OC",
    "target or system": "RPMI-8226 leukemia",
    "answer label": "y"
  },
  {
    "compound": "COc1ccc(-c2nc(-c3ccccn3)c(-c3ccccn3)n2CC(C)C)cc1OC1CCCC1",
    "target or system": "RPMI-8226 leukemia",
    "answer label": "y"
  },
  {
    "compound": "CCCCCCCCCCOC(=O)c1ccccc1C(=O)OCCCC",
    "target or system": "RPMI-8226 leukemia",
    "answer label": "n"
  },
  {
    "compound": "O=C(NC1CCN(Cc2ccccc2)CC1)c1cc2nc(-c3ccc(Cl)s3)cc(C(F)(F)F)n2n1",
    "target or system": "RPMI-8226 leukemia",
    "answer label": "y"
  },
  {
    "compound": "CC[C@]1(O)C[C@@H]2CN(CCc3c([nH]c4ccccc34)[C@@](C(=O)OC)(c3cc4c(cc3OC)N(C)[C@H]3[C@@](O)(C(=O)OC)[C@H](OC(=O)CCCBr)[C@]5(CC)C=CCN6CC[C@]43[C@@H]65)C2)C1",
    "target or system": "RPMI-8226 leukemia",
    "answer label": "y"
  },
  {
    "compound": "O=C(O)CCCN1C(=O)C2C3CCC(C3)C2C1=O (centres undefined)",
    "target or system": "RPMI-8226 leukemia",
    "answer label": "n"
  },
  {
    "compound": "CCN(CCO)CCNc1ccc(C)c2sc3cc(Cl)ccc3c(=O)c12",
    "target or system": "RPMI-8226 leukemia",
    "answer label": "n"
  },
  {
    "compound": "O=c1oc2ccc(I)cc2c(=O)n1-c1ccc(I)cc1F",
    "target or system": "RPMI-8226 leukemia",
    "answer label": "y"
  },
  {
    "compound": "CS(=O)(=O)Nc1ccc(C(=O)NC(C(=O)NO)c2ccc(-c3cccc(F)c3)cc2)cc1 (centres undefined)",
    "target or system": "RPMI-8226 leukemia",
    "answer label": "n"
  }
]

====

Test system: SK-MEL-2 melanoma
Assay: NCI-60 one-dose screen, 48 h
Details: 10 µM unless noted
This is part of a sample that, as a whole, favours compounds with a hit. Of some 83,000 tested, about 20% had one in any assay. The source made the active and inactive calls. Rule for the calls: active = growth percent below 10; inactive = the rest.
Possible outcomes: True = active, False = inactive

[
  {
    "compound": "CCN1C(=O)N(CC)C2Nn3c(s/c(=C\\c4ccccc4F)c3=O)=NC21 (stereo not given)",
    "target or system": "SK-MEL-2 melanoma",
    "answer label": "False"
  },
  {
    "compound": "CCCCN1CCN(c2ccc3nc(-c4ccc5nc(-c6ccc(OCC)cc6)[nH]c5c4)[nH]c3c2)CC1",
    "target or system": "SK-MEL-2 melanoma",
    "answer label": "False"
  },
  {
    "compound": "C[C@@H](C(=O)NCCCC#Cc1cnc(Nc2ccc(C#N)cc2)nc1NC1CC1)N(C)C(=O)/C=C/CN(C)C",
    "target or system": "SK-MEL-2 melanoma",
    "answer label": "False"
  },
  {
    "compound": "COc1ccc(-n2c(C(O)c3ccccc3)nn(CN3CCOCC3)c2=S)cc1 (stereo not given)",
    "target or system": "SK-MEL-2 melanoma",
    "answer label": "False"
  },
  {
    "compound": "COc1cc(C(=O)O/N=C(\\N)Cc2cccc3ccccc23)cc(OC)c1OC",
    "target or system": "SK-MEL-2 melanoma",
    "answer label": "True"
  },
  {
    "compound": "CNCCNc1nc2ccccc2c2c(=O)c3cc(F)ccc3sc12",
    "target or system": "SK-MEL-2 melanoma",
    "answer label": "False"
  },
  {
    "compound": "CC(=O)Nc1nc2c(s1)CCc1c-2cn(S(=O)(=O)c2ccccc2)c1-c1ccccc1",
    "target or system": "SK-MEL-2 melanoma",
    "answer label": "False"
  },
  {
    "compound": "O=C(Nc1ccc(-c2nc3cc4ccccc4cc3[nH]2)cc1)c1cccc(Br)c1",
    "target or system": "SK-MEL-2 melanoma",
    "answer label": "False"
  },
  {
    "compound": "COc1cc(/C=C/C(=O)c2ccc(Nc3nc(NCCO)nc(N4CCOCC4)n3)cc2)cc(OC)c1OC",
    "target or system": "SK-MEL-2 melanoma",
    "answer label": "False"
  },
  {
    "compound": "COCCN(C(=O)Cc1cccs1)C(C(=O)NCc1ccc(OC)cc1)c1ccc(C(C)C)cc1 (stereo not given)",
    "target or system": "SK-MEL-2 melanoma",
    "answer label": "False"
  },
  {
    "compound": "Cn1c2c(c(=O)[nH]c1=O)NC1=C(C(=O)c3ccccc31)C1(C=C(O)c3ccccc31)N2 (stereo not given)",
    "target or system": "SK-MEL-2 melanoma",
    "answer label": "False"
  },
  {
    "compound": "O=C(/C=C/c1ccccn1)c1ccc(OCc2nnc(-c3ccc(Cl)cc3)o2)cc1",
    "target or system": "SK-MEL-2 melanoma",
    "answer label": "False"
  },
  {
    "compound": "NS(=O)(=O)c1ccc(CCN=C=S)cc1",
    "target or system": "SK-MEL-2 melanoma",
    "answer label": "False"
  },
  {
    "compound": "c1ccc(-c2ccc(-c3nc4ccccc4[nH]3)cc2)cc1",
    "target or system": "SK-MEL-2 melanoma",
    "answer label": "False"
  },
  {
    "compound": "COc1ccc(/C=C2\\SC(=Nc3ccccc3)NC2=O)cc1",
    "target or system": "SK-MEL-2 melanoma",
    "answer label": "True"
  },
  {
    "compound": "COc1c(B(O)O)cccc1-c1nc2ccc3[nH]ncc3c2c2c1C1CCC2C1 (stereo not given)",
    "target or system": "SK-MEL-2 melanoma",
    "answer label": "False"
  },
  {
    "compound": "Cc1ccc(N=NC2C(=O)N(c3ccc(Cl)cc3)N(c3ccc(Cl)cc3)C2=O)cc1",
    "target or system": "SK-MEL-2 melanoma",
    "answer label": "False"
  },
  {
    "compound": "CCOC(=O)c1sc(-c2ccc(OS(=O)(=O)c3cccs3)c(C=O)c2)nc1C",
    "target or system": "SK-MEL-2 melanoma",
    "answer label": "False"
  },
  {
    "compound": "O=C(CN1C(=O)/C(=C\\c2ccc(Cl)cc2)SC1=S)Nc1ncc(Cc2ccc(Cl)cc2)s1",
    "target or system": "SK-MEL-2 melanoma",
    "answer label": "False"
  },
  {
    "compound": "O=C(/C=C/c1ccc(F)cc1)c1ccc(Nc2nc(NCCO)nc(Nc3ccc(Cl)cc3)n2)cc1",
    "target or system": "SK-MEL-2 melanoma",
    "answer label": "False"
  }
]
